- SYSTEM_NAME: IRE1a (Homo sapiens, UniProt O75460)
- Sequence (O75460 19-977): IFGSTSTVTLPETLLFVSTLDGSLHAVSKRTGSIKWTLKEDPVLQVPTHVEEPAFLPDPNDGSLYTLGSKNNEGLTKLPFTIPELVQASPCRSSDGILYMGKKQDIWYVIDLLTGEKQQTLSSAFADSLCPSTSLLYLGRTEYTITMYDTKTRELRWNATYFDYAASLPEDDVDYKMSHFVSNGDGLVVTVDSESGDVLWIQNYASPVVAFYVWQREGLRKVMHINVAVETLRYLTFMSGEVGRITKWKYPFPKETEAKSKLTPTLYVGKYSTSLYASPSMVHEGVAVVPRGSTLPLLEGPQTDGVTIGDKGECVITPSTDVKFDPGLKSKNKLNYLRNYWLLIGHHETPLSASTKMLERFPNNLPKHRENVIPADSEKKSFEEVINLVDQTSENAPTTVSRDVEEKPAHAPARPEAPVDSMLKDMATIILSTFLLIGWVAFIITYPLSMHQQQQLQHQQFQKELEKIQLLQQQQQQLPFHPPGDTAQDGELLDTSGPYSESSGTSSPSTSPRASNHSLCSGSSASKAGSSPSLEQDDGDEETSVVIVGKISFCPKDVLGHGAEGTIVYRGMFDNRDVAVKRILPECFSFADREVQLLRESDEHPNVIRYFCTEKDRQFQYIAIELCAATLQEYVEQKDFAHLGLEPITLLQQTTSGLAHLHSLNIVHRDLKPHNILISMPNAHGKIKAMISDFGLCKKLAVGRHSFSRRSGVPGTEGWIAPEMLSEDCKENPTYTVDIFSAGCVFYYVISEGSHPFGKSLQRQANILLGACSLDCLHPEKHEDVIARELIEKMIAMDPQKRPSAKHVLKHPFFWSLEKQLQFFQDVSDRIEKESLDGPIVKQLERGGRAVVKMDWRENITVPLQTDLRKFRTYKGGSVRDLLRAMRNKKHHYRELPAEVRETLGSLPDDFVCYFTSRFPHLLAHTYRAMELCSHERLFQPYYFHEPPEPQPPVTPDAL
- EXPERIMENT_DESCRIPTION: IRE1a Endoribonuclease Nanoluciferase Assay (XBP1 luciferase reporter in 293T cells)
- ASSAY_SETUP: XBP1 nanoluciferase reporter in 293T cells, ER stressor; tested as the salt named
pEC50: −log10 of the molar value.
Let's look at some compounds and their measured pEC50.

# count of solved cases: 6
Exercise: Param item = CCc1cc(-c2ccc(NS(=O)(=O)c3ccccc3Cl)nc2OC)cc2cnc(N[C@H]3CC[C@H](N(C)C)CC3)nc12 [Compound 99] ; retrieve measured pEC50.
Key: > 8.30

Exercise: Param item = Cc1nc(NS(=O)(=O)c2ccccc2Cl)ncc1-c1ccc2nc(N[C@H]3CC[C@H](N)CC3)ncc2c1 [Compound 68] ; retrieve measured pEC50.
Key: 7.00 to 7.30

Exercise: Param item = CCc1cc(-c2ccc(NS(=O)(=O)c3ccccc3Cl)nn2)cc2cnc(N[C@H]3CC[C@H](N)CC3)nc12 [Compound 32] ; retrieve measured pEC50.
Key: > 8.30

Exercise: Param item = N[C@@H]1CC[C@@H](Nc2ncc3cc(-c4ccc(NS(=O)(=O)c5ccccc5Cl)c(F)c4)ccc3n2)C1 [Compound 77] ; retrieve measured pEC50.
Key: 7.30 to 8.30

Exercise: Param item = CCc1cc(-c2ccc(NS(=O)(=O)c3ccccc3Cl)c(F)c2)cc2cnc(N[C@H]3CC[C@H](N(C)C)CC3)nc12 [Compound 69] ; retrieve measured pEC50.
Key: > 8.30

Exercise: Param item = CCc1cc(-c2ccc(NS(=O)(=O)c3ccccc3Cl)nc2C)cc2cnc(N[C@H]3CC[C@H](N(C)C)CC3)nc12 [Compound 91] ; retrieve measured pEC50.
Key: > 8.30

Attention now turns to another entry.
Exercise: Param item = CCc1cc(-c2cnc(NS(=O)(=O)c3ccccc3Cl)nc2OC)cc2cnc(N[C@H]3CC[C@H](N)CC3)nc12 [Compound 46] ; retrieve measured pEC50.
Key: > 8.30
